Target: hornworm nerve cord PDE (cyclic AMP phosphodiesterase)
Experiment: Inhibition of cyclic AMP phosphodiesterase activity in homogenates of tobacco hornworm nerve cord
Conditions: read-out: Ki, insect PDE
MEASURED_QUANTITY: Ki (µM)
One number for each entry, in µM.

**Q:** Query (molecule): COc1ccc(Cc2nccc3cc(OC)c(OC)cc23)cc1OC [papavarine, reference compound] ; field requested: Ki
**A:** 40

* * *

Experiment: Tissue level of theophylline in larvae after feeding on sprayed leaves (immunoenzymatic assay)
Assay type: in vivo, Manduca sexta
Conditions: 1% spray, three days of feeding; mean ± deviation, two groups of six pooled animals; 4320 min; read-out: internal theophylline concentration of larvae
MEASURED_QUANTITY: concentration (µM)
Answers are plain numbers, in µM.

**Q:** Form field: reported concentration of Cn1c(=O)c2[nH]cnc2n(C)c1=O [Example 15, 1,3-dimethyl-xanthine (theophylline), reference compound]
**A:** 4100

* * *

System: hornworm nerve cord PDE (cyclic AMP phosphodiesterase)
Experiment: Inhibition of cyclic AMP phosphodiesterase activity in homogenates of tobacco hornworm nerve cord
Assay type: biochemical, Manduca sexta
Settings: Example 47
MEASURED_QUANTITY: activity of structurally similar compounds tested as described in Example 46

{"columns": ["COMPOUND", "RESULT"],
 "data": [
  ["Cn1c(=O)c2c(ncn2C)n(C)c1=O", "active"],
  ["Cn1c(=O)c2[nH]cnc2n(C)c1=O [Example 15, 1,3-dimethyl-xanthine (theophylline), reference compound]", "active"]
]}

// provenance: patent US4883801A
